Test system: SpTbr T-box DNA-binding domain (GST fusion);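 further: protein at 200 nM in PBS on universal double-stranded arrays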
Sequence: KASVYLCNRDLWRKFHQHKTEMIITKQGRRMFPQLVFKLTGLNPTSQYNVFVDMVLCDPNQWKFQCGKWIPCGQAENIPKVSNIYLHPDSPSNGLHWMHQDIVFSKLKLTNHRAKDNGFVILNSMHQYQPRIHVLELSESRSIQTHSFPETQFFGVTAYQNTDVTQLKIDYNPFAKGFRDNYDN
Assay: PBM E-score of 8-mer (E-score (dimensionless, -0.5 to 0.5)); Tbr is Tbrain of the sea star Patiria miniata (Pm) or the sea urchin Strongylocentrotus purpuratus (Sp); higher = stronger binding preference
Conditions: the construct has about 5 more residues each side
The full ranking holds about 33,000 sequences; the median of “E-score (dimensionless, -0.5 to 0.5)” is about -0.046, and the highest 2% start at about 0.36. For the sample, the highest values were picked, then their nearest neighbours and some sequences at random.
test_readout: PBM E-score of 8-mer
API doc: respond with a numeric literal and nothing else, no unit.

Request: What measured PBM E-score of 8-mer goes with `AGGTGTAT` ?
Response: 0.281

Request: So what's the measured PBM E-score of 8-mer for this one? `CCTTTGAG`
Response: -0.17

Request: Which value of PBM E-score of 8-mer has been reported for `AGGTGTAA` in the records?
Response: 0.475

Request: So what's the measured PBM E-score of 8-mer for this one? `TCACCTCA`
Response: 0.387

Request: GET /values?readout=PBM E-score of 8-mer&item= `AAACCTCG`
Response: 0.0284

Request: Reported PBM E-score of 8-mer for `ACACCTCG` : what is it?
Response: 0.48

Request: State the recorded PBM E-score of 8-mer for this entry: `ATACCTCC`
Response: -0.0183

Request: // returns reported PBM E-score of 8-mer for input `AGGTGTAG`
Response: 0.392

Request: Request the reported PBM E-score of 8-mer associated with `GTCAATAA`
Response: 0.129
